- Assay Target: Prostaglandin G/H synthase 1 (Homo sapiens)
- Sequence (P23219 whole entry): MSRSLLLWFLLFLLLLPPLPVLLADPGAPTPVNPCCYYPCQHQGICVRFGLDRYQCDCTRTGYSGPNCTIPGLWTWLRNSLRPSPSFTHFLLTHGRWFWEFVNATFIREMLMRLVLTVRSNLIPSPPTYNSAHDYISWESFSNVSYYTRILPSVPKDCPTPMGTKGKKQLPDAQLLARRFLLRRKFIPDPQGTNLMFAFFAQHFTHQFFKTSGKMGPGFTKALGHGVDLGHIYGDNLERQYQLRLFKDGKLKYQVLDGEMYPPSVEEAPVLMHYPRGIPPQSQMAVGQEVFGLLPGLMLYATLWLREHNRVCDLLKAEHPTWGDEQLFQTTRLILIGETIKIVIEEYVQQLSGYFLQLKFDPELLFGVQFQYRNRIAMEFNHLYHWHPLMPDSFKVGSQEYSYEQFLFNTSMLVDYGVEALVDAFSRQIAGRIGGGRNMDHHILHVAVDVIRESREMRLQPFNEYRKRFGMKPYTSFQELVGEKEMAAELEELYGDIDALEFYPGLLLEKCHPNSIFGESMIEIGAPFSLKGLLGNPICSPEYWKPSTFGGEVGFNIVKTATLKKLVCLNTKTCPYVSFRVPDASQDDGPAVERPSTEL
- Test Summary: The inhibitory activity against Prostaglandin G/H synthase 1 measured as TXB2 production after blood coagulation using human Whole blood assay
Quantity Kind: pIC50
Numbers only, as −log10 of the molar value.

# input Looking for the measured pIC50 of `CS(=O)(=O)Nc1ccncc1Oc1ccccc1` , can you help?
# output 5.31
